# SUBJECT_OF_TEST: EGFR WT (Homo sapiens, UniProt P00533)
# Sequence (P00533 25-1210 N540K): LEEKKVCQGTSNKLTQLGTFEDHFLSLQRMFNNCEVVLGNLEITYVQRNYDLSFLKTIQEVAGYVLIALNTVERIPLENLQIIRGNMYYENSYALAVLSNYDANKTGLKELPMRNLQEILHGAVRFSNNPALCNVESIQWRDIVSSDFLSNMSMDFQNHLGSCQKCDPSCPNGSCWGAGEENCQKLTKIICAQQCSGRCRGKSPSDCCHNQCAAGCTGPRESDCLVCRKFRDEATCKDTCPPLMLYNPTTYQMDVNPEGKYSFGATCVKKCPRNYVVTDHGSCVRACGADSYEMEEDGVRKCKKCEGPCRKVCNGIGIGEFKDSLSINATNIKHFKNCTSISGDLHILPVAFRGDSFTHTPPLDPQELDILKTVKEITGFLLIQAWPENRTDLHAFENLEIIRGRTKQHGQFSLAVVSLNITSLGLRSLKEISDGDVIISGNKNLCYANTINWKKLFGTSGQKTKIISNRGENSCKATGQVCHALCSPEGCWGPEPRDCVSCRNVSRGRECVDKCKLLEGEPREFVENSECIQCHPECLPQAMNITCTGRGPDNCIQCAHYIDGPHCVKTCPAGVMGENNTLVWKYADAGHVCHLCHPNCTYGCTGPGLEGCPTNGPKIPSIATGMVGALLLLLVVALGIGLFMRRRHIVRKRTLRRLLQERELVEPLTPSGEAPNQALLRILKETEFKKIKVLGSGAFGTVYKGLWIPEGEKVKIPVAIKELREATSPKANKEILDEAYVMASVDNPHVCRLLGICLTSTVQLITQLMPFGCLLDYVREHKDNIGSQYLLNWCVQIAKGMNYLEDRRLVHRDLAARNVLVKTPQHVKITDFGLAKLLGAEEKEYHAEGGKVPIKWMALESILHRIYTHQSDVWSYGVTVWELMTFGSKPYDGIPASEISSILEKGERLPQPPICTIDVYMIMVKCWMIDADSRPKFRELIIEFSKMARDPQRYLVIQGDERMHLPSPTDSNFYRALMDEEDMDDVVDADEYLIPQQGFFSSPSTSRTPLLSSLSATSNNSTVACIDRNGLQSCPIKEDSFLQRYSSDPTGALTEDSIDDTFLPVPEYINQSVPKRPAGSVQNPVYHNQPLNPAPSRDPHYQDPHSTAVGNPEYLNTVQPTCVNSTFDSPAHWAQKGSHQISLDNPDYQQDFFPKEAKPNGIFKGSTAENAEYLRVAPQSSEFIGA
# EXPERIMENT_DESCRIPTION: BaF3 cell proliferation assay, EGFR WT (Table A)
# Assay type: cell-based
# CONDITION_LABEL: potency code, 3 days, CellTiterGlo, read-out: EGFR WT (Activity for Inhibiting EGFR)
# Experimental: Retroviral Production: EGFR mutants were subcloned into pMXs-IRES-Blasticidin (RTV-016, Cell Biolabs, San Diego, Calif.). Retroviral expression vector retrovirus was produced by transient transfection of HEK 293T cells with the retroviral EGFR mutant expression vector pMXs-IRES-Blasticidin (RTV-016, Cell Biolabs), pCMV-Gag-Pol vector and pCMV-VSV-G-Envelope vector. […] EC50 values were determined with the same application.
pIC50: −log10 of the molar value.
ASSAY_ENDPOINT: pIC50

The following compounds have reported results that may help.
C=CC(=O)Nc1cc2c(Nc3ccc(OCc4ccccn4)c(Cl)c3)ncnc2cc1N1CC(N(C)C)C1 ... < 6.00
C=CC(=O)Nc1cc2c(Nc3ccc(OCc4cccc(F)n4)c(Cl)c3)ncnc2cc1OCCN1CC(OC)C1 ... 6.00 to 6.30
C=CC(=O)Nc1cc2c(Nc3ccc(OCc4ccccn4)c(Cl)c3)ncnc2cc1N1CCC(N(C)C)CC1 ... < 6.00

Please look up its pIC50: C=CC(=O)Nc1cc2c(Nc3ccc(OCc4ccccn4)c(Cl)c3)ncnc2cc1OCC1CCCN1 (stereo not shown)
6.30 to 6.52

----------
# SUBJECT_OF_TEST: EGFR V3 (Homo sapiens, UniProt P00533, DELINS30-297G)
# Construct: expressed in transfected cells; host or cells: BaF3 (murine pro-B), retroviral pMXs-IRES-Blasticidin
# Sequence (P00533 with tags, fused parts or gaps DELINS30-297G): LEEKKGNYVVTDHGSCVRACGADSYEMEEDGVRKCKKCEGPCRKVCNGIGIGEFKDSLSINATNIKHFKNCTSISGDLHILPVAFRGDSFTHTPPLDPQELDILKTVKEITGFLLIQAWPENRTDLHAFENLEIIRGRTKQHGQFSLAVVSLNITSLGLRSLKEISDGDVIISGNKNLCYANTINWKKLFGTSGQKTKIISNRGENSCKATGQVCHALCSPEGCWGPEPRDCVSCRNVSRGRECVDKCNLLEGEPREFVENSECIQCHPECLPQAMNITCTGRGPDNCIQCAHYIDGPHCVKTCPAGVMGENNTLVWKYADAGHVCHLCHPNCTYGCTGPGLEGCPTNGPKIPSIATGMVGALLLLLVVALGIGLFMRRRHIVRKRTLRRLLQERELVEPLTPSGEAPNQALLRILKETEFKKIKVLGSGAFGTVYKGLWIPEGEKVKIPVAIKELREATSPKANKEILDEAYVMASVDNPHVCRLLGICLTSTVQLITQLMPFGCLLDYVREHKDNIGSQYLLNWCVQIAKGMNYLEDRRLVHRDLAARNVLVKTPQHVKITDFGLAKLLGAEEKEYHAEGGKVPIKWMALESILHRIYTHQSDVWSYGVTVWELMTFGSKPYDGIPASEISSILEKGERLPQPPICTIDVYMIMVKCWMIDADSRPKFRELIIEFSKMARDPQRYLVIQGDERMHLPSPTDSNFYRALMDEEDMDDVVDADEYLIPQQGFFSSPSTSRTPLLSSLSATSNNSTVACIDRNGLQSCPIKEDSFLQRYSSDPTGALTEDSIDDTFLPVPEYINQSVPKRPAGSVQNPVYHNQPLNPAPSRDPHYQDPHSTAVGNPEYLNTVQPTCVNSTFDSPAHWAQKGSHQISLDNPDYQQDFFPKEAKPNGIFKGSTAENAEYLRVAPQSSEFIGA
# EXPERIMENT_DESCRIPTION: BaF3 cell proliferation assay, EGFR V3 (Table A)
# Assay type: cell-based
# CONDITION_LABEL: potency code, 3 days, CellTiterGlo, read-out: EGFR V3 (Activity for Inhibiting EGFR)
ASSAY_ENDPOINT: IC50

The following compounds have reported results that may help.
C=CC(=O)Nc1cc2c(Nc3ccc(OCc4ccccn4)c(Cl)c3)ncnc2cc1OC1CCNC1 (centres unmarked) [compound 15] ... 200 to 300 nM
C=CC(=O)Nc1cc2c(Nc3ccc(OCc4ccccn4)c(Cl)c3)ncnc2cc1OCCCN1CC2CC1CO2 (centres unmarked) [compound 20] ... 20 to 30 nM
CC#CC(=O)Nc1cc2c(Nc3ccc(OCc4cnccn4)c(Cl)c3)ncnc2cc1OCCCN1CCOCC1 [compound 170] ... 30 to 50 nM
C=CC(=O)Nc1cc2c(Nc3ccc(OCc4cccc(F)c4)c(Cl)c3)ncnc2cc1OCCN1CC2CCC(C1)O2 [compound 139] ... 100 to 200 nM
C=CC(=O)Nc1cc2c(Nc3ccc(OCc4ccccn4)c(Cl)c3)ncnc2cc1OCC(C)(C)N(C)C [compound 94] ... 30 to 50 nM

Please look up its IC50: CC#CC(=O)Nc1cc2c(Nc3ccc(OCc4ccccn4)c(Cl)c3)ncnc2cc1C#CC(C)(C)N1CCN(C)CC1 [compound 89]
30 to 50 nM

Please look up its IC50: C=CC(=O)Nc1cc2c(Nc3ccc(OCc4cccc(F)c4)c(Cl)c3)ncnc2cc1OCCCN1CCOCC1 [compound 3]
30 to 50 nM

Please look up its IC50: C=CC(=O)Nc1cc2c(Nc3ccc(OCc4ccccn4)c(Cl)c3)ncnc2cc1OC1CCN(C)CC1 [compound 110]
20 to 30 nM

Please look up its IC50: C=CC(=O)Nc1cc2c(Nc3ccc(OCc4cccc(C(F)(F)F)n4)c(Cl)c3)ncnc2cc1OCCN1CCOCC1 [compound 23]
100 to 200 nM
